# subject_of_test: human CD33 W22Q (human, UniProt P20138 18-364)
# Sequence (P20138 18-364 W22Q limits assumed): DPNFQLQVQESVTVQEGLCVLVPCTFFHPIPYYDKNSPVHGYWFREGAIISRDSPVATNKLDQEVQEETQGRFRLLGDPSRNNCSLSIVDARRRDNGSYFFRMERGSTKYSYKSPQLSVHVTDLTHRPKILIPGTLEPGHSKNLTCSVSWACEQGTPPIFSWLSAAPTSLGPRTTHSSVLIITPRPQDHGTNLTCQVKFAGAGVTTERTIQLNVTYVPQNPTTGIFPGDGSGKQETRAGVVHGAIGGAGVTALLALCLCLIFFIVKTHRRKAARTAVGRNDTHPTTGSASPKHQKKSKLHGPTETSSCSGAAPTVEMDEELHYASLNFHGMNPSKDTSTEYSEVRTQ
# procedure_text: flow cytometry, mutant on cells, IgG
measured_parameter: Mean % WT Binding (% WT binding)
Number only, in % WT binding; omit the unit.

Q) Looking for the measured Mean % WT Binding of Refmab #1 (antibody, human IgG1, V domains shown, Tested in IgG format; human IgG1 (Absolute Antibody hP67.6, Cat. No. Ab00283-10.0); also called hP67.6) VH: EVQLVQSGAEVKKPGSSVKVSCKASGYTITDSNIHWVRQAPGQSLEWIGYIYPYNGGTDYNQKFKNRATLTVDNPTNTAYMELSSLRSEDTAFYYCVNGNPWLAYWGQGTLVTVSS VL: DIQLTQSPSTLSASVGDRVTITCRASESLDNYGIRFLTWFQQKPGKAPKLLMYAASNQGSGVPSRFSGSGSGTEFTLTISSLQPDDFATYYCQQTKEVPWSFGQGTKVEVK , can you help?
A) 99.5
